Each recorded value in this set is attributed to paper PMC7875557.

assay: In vivo oral bioavailability / pharmacokinetic study; conditions: male, Wister, rat, plasma, 6 mg/kg; rats, after oral administration; read-out: Time to peak plasma levels
Measurement Name: Tmax

INSERT INTO results (molecule, result) VALUES
  ('CCOc1ccc(Cc2cc([C@@H]3O[C@H](CO)[C@@H](O)[C@H](O)[C@H]3O)ccc2Cl)cc1 [Dapagliflozin, dapagliflozin]', '≤ 4 h');
